MEASURED TARGET: SEQ ID NO 21, mutant of Zea mays bx9 glucosyl transferase (Zea mays, UniProt B4G072, A334K/F21Y/L194V/M279F/S117V)
Construct: His tag (C); made in house
Sequence (B4G072 whole entry F21Y/S117V/L194V/M279F/A334K): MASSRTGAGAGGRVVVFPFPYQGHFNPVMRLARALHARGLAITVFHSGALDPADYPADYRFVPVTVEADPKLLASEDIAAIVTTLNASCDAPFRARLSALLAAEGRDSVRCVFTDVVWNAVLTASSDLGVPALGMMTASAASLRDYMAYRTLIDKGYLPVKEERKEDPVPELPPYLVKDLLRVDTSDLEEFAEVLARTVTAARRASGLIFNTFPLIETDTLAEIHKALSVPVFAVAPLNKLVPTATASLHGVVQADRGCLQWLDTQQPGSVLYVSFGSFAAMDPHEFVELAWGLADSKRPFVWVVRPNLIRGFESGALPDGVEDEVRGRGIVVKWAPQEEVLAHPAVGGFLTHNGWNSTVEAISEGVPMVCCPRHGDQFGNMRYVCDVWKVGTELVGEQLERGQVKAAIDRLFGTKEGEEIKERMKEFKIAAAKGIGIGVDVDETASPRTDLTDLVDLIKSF
MEASUREMENT NOTES: UDP-Glo glucosyl transferase assay, purified enzyme
Format: biochemical
EXPERIMENTAL CONTEXT: lower block, concentration printed only in upper block: V 0.300, VII 0.210; IV, VIII, XI, XXI, XX, XVIII, XVI, XV, XIV 0.200; others 1.000 mM
ASSAY ENDPOINT: Activity (pmol/sec/pmol enzyme)
Quick reminder: number only, in pmol/sec/pmol enzyme, skip the unit.

// below: answered compounds
{"COMPOUND": "CN1CC(O)N(c2cc(C(F)(F)F)ccn2)C1=O (stereo not drawn)", "ASSAY VALUE": 1.548}
{"COMPOUND": "CN1CC(O)N(c2cc(C(F)(F)F)c(Cl)cn2)C1=O (stereo not drawn)", "ASSAY VALUE": 0.374}
{"COMPOUND": "CC1C(O)N(c2cc(C(F)(F)F)c(Cl)cn2)C(=O)N1C (stereo not drawn)", "ASSAY VALUE": 0.234}
{"COMPOUND": "CN1CC(O)N(c2cc(C(F)(F)F)ncn2)C1=O (stereo not drawn)", "ASSAY VALUE": 0.170}

Give Activity for the following compound: C[C@H]1C(O)N(c2cc(C(F)(F)F)ccn2)C(=O)N1C (stereo partly drawn)
1.154

Give Activity for the following compound: C[C@H]1C(=O)N(c2noc(C(C)(C)C)c2C#N)C(O)[C@@H]1C (stereo partly drawn)
0.034

Give Activity for the following compound: CON1C(=O)N(c2cc(C(F)(F)F)c(C)cn2)C(O)[C@@H]1C (stereo partly drawn)
1.711

Give Activity for the following compound: CON1C(=O)N(c2cc(C(F)(F)F)c(Cl)cn2)C(O)C1C (stereo not drawn)
1.827

Give Activity for the following compound: CN1CC(O)N(c2cc(C(C)(C)C)c(Cl)nn2)C1=O (stereo not drawn)
0.020

Give Activity for the following compound: C[C@@H]1C(O)N(c2noc(C(C)(C)C)c2C#N)C(=O)[C@@H]1C (stereo partly drawn)
0.040

Give Activity for the following compound: CC1C(=O)N(c2cc(C(F)(F)F)n(C)n2)C(O)[C@@H]1C (stereo partly drawn)
0.195

Give Activity for the following compound: C[C@@H]1C(O)N(c2cc(C(C)(C)C)on2)C(=O)[C@@H]1C (stereo partly drawn)
0.016
